pKi: −log10 of the molar value. Bridge positions count the residues as written; N and C are the ends. Square brackets hold non-standard residues; d marks the D form. Peptide text beside a SMILES is read from it. NMeC = CN[C@@H](CS)C(=O)O
Quick note: these are pKi numbers for system: Urotensin-2 receptor (Homo sapiens, UniProt Q9UKP6)
Sequence (Q9UKP6 whole entry): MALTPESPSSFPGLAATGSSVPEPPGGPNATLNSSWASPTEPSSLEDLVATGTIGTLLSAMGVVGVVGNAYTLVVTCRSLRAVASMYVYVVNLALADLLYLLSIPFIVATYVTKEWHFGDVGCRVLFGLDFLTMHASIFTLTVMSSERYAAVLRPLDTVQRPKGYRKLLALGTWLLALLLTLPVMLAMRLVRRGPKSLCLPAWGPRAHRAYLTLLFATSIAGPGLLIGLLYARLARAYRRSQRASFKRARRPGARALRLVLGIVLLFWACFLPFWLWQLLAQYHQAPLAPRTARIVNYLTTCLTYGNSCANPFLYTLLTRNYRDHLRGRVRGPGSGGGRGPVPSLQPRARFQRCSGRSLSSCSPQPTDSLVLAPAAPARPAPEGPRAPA
MEASURED_METRIC: pKi

| MOLECULE | MEASURED_METRIC | READOUT_VALUE |
| --- | --- | --- |
| CC(C)[C@H](NC(=O)[C@@H]1CSSC[C@H](N(C)C(=O)[C@H](CC(=O)O)NC(=O)[C@@H]2CCCN2C(=O)[C@@H](NC(=O)[C@@H](N)CCC(=O)O)[C@@H](C)O)C(=O)N[C@@H](Cc2ccccc2)C(=O)N[C@@H](Cc2c[nH]c3ccccc23)C(=O)N[C@@H](CCCCN)C(=O)N[C@@H](Cc2ccc(O)cc2)C(=O)N1)C(=O)O | pKi | 7.31 |
| CC(C)[C@H](NC(=O)[C@@H]1CSSC[C@H](NC(=O)[C@@H](N)CC(=O)O)C(=O)N[C@@H](Cc2ccccc2)C(=O)N[C@@H](Cc2c[nH]c3ccccc23)C(=O)N[C@@H](CCCCN)C(=O)N[C@@H](Cc2ccc(O)cc2)C(=O)N1C)C(=O)O (H-DCFWKY[NMeC]V-OH; disulfide 2-7) | pKi | 8.45 |
